- Tested on: sheep liver cytosol
- measurement.conditions: pH 7.4
result.type: Km (µM)
Value expressed in µM; do not type the unit.

INSERT INTO results (compound, result_type, result_value) VALUES
  ('O=c1oc2cc(O)ccc2cc1-c1cccnc1 [compound 13, 3-(4-pyridin-3-yl)-7-hydroxycoumarin]', 'Km', 6.8);

**Query** Report Km for `O=c1oc2cc(O)ccc2cc1-n1cncn1` please.
**Result** 12

---

- method: Sulfonation of 7-hydroxycoumarin derivatives by human liver cytosol
- measurement.conditions: male, human, liver cytosol, pH 7.4
result.type: Km
Write down the value, and be sure its unit follows.

Example results:
INSERT INTO assay_data (compound, result_type, result_value) VALUES
  ('COc1cc2ccc(=O)oc2cc1O [compound 3, 6-methoxy-7-hydroxycoumarin]', 'Km', '3.5 µM'),
  ('CN(C)c1ccc(-c2cc3ccc(O)cc3oc2=O)cc1 [compound 12]', 'Km', '0.39 µM'),
  ('CCc1c(C)c2ccc(O)cc2oc1=O [compound 5, 3-ethyl-4-methyl-7-hydroxycoumarin]', 'Km', '2.1 µM');

Let us move to another entry and its Km.
**Query** Entry CCc1c(C)c2ccc(O)c(C)c2oc1=O [compound 6, 3-ethyl-4,8-dimethyl-7-hydroxycoumarin] has what Km?
**Result** 0.51 µM

---

Examples of compounds with documented Km follow.
- method: Sulfonation of 7-hydroxycoumarin derivatives by human liver cytosol
- measurement.conditions: male, human, liver cytosol, pH 7.4
Give your result in µM as a bare value.

Answered examples (2):
INSERT INTO assay_data (compound, result_value) VALUES
  ('Cc1ccc(-c2cc3ccc(O)cc3oc2=O)cc1 [compound 8, 3-(4-methylphenyl)-7-hydroxycoumarin]', 0.27),
  ('O=c1ccc2ccc(O)cc2o1 [compound 1, 7-hydroxycoumarin, reference compound]', 1.9);

// switching to the query compound
**Query** // returns reported Km for input Cc1c(C)c2ccc(O)c(C)c2oc1=O [compound 7, 3,4,8-trimethyl-7-hydroxycoumarin]
**Result** 0.65
